# Tested on: A-427
# Protocol summary: relative viability (nuclei count vs DMSO), 5 days (fraction); higher = more cells survive
# Study conditions: first compound 158.11 µM
Test readout: relative viability
In your answer, state the number alone without any accompanying words.

Record excerpt, results attached:
[
  {
    "Molecule": "O=C(O)CCCCC(CCSCc1ccccc1)SCc1ccccc1 (centres undefined) [CPI-613] + N=C(N)NC(=N)NCCc1ccccc1 [Phenformin] (partner 250 µM)",
    "Assay target": "A-427",
    "Test readout": "relative viability",
    "Experimental result": 0.178
  },
  {
    "Molecule": "O=C(O)CCCCC(CCSCc1ccccc1)SCc1ccccc1 (centres undefined) [CPI-613] + Nc1nc2[nH]cc(CCc3ccc(C(=O)N[C@@H](CCC(=O)O)C(=O)O)cc3)c2c(=O)[nH]1 [Pemetrexed] (partner 0.2 µM)",
    "Assay target": "A-427",
    "Test readout": "relative viability",
    "Experimental result": 0.857
  },
  {
    "Molecule": "O=C(O)CCCCC(CCSCc1ccccc1)SCc1ccccc1 (centres undefined) [CPI-613] + CCNC(=O)c1noc(-c2cc(C(C)C)c(O)cc2O)c1-c1ccc(CN2CCOCC2)cc1 [Luminespib] (partner 0.01 µM)",
    "Assay target": "A-427",
    "Test readout": "relative viability",
    "Experimental result": 0.512
  }
]

Could you now look at the following molecule, please?
Consider O=C(O)CCCCC(CCSCc1ccccc1)SCc1ccccc1 (centres undefined) [CPI-613] + COc1cc2c(Oc3ccc(NC(=O)C4(C(=O)Nc5ccc(F)cc5)CC4)cc3F)ccnc2cc1OCCCN1CCOCC1 [Foretinib] (partner 0.25 µM) . Its measured relative viability is 0.526

These entries and their values trace back to the supplement of paper PMC10307832.
